System: HT29 colon
Assay: NCI tumour cell line growth inhibition, 48 h; in the data active means GI50 below about 0.43 µM; inactive means the rest
Select the correct class. Options are active, inactive and nothing else.

[[record]]
smiles_code = "O=C1c2ccccc2-c2c1c1c(NCCCO)nc3ccccc3c1n2Cc1ccccc1"
cat = "inactive"

[[record]]
smiles_code = "C/C1=C\\CC[C@@](C)(O)[C@@H]2C[C@H](CC/C(C)=C/CC1)C1(CC1)C(=O)O2"
cat = "inactive"

[[record]]
smiles_code = "CSc1ccc(N(C)c2nc(C)nc3c2CCC3)cc1"
cat = "active"

[[record]]
smiles_code = "COc1cc2nc(-c3ccc(C(F)(F)F)cc3)cc(OCCCN3CCCC3)c2cc1OC"
cat = "inactive"


Below: the item to evaluate.
INPUT: Please state the recorded outcome for this molecule: `O=C(NCCN1CCNCC1)c1ccc(Nc2nc3ccccc3c3occc23)cc1`
OUTPUT: inactive
